Every entry's value here was drawn from PubChem BioAssay (NCI).

# System: OVCAR-8 ovarian
# assay-protocol: NCI-60 one-dose screen, 48 h
# condition-context: 10 µM unless noted
This is part of a sample that, as a whole, favours compounds with a hit. Of some 83,000 tested, about 20% had one in any assay. Calls of active or inactive are those of the source. The calls were made as follows: active = growth percent below 10; inactive = the rest.
Output constraint: value belongs to YES (active), NO (inactive)

The following molecules have reported results that may help.
O=C(Nc1nc2ccc(F)cc2s1)c1cccnc1Nc1ccc(Cl)cc1 :: NO
COc1cccc(CNc2ncnc3c2ncn3C2OC(CO)C(O)C2O)c1O (centres undefined) :: YES
Cc1ccc(Cl)cc1Nc1nc(C(F)(F)F)ccc1C(=O)N/N=C/c1cccnc1 :: NO
Cc1ccc2c3c(c(=O)[nH]c2c1)C1(C(C#N)=C(N)O3)c2cc(Br)ccc2-c2ccc(Br)cc21 :: YES
O=S(=O)(NCCCNc1nccc(-c2c(-c3ccc(F)c(O)c3)nc3occn23)n1)c1ccccc1 :: NO

Request: For CN(C)CCCC1(c2ccc(F)cc2)OCc2cc(-c3cccc4[nH]ccc34)ccc21 (centres undefined) , what call appears in the results of this test?
Result: NO

Request: Hey, what did the test say about "c1cc2[nH]ncc2cc1-c1nc2ccc3[nH]ncc3c2c2c1CCCC2" ?
Result: NO

Request: Outcome? "N=C(N)c1ccc(-c2ccc(-c3ccc(Cl)cc3)s2)nc1"
Result: YES

Request: Recorded call for "COc1ccc(-c2cc(-c3ccc(Cl)cc3)c(C#N)c(=O)n2CCCCC(=O)Nc2ccccc2N)cc1" ?
Result: NO

Request: // return assay outcome for "C#CCn1cnc2c(Nc3cccc(NC(=O)C=C)c3)ncnc21"
Result: NO

Request: Please state the recorded outcome for this molecule: "Cn1c(-c2ccc(Br)cc2)c(O)c(=O)c2c(F)cccc21"
Result: NO

Request: Which outcome was assigned to "CCc1ccc(Oc2cn[nH]c2-c2ccc(OCCc3ccc(F)cc3)cc2O)cc1" in this test?
Result: NO

Request: Hi team, can someone confirm the assay call for "COC(=O)CCC(=O)C(=O)OC" ?
Result: NO

Request: Called result for CC[C@@H](C(=O)[C@@H](C)[C@@H](O)[C@H](C)[C@@H]1O[C@@H]([C@@H](CC)C(=O)NCCc2ccc(F)cc2)CC[C@@H]1C)C1O[C@]2(C=CC(=O)[C@]3(CC[C@@](C)([C@H]4CC[C@](O)(CC)[C@H](C)O4)O3)O2)[C@H](C)C[C@@H]1C (some centres undefined)
Result: NO

Request: For "C=CCn1c(SCC(=O)Nc2ccc(C(=O)/C=C/c3ccc(Cl)cc3)cc2)nnc1-c1cc(-c2ccc(S(N)(=O)=O)cc2)nc2ccccc12" , which call appears in the assay record?
Result: NO

Request: Please indicate how the test categorized "CC1=C(Nc2ccc(N3CCN(C)CC3)cc2)C(=O)c2cncnc2C1=O" .
Result: YES

Request: Please state the recorded outcome for this molecule: "CCSc1nc(NC)c2cc(-c3ccc(C(F)(F)F)cc3)ccc2n1"
Result: NO

Request: Give the logged outcome of this assay for the following molecule: "Cn1cc(-c2nonc2-c2c[nH]c3ccc(Br)cc23)c2cc(Br)ccc21"
Result: NO

Request: Which result was noted for this molecule in the test: CSc1nnc(-c2cnn3c2NC(c2ccccc2)C3)n1-c1ccc(C(F)(F)F)cc1 (centres undefined)
Result: NO
